The origin of these recorded values is patent US20250136597A1.

EC50 for assorted molecules
target: hSTING (Homo sapiens, UniProt Q86WV6, G230A/H232R/R293Q/R71H); test: STING reporter assay in THP1-Dual KO-IFNAR2 cells (2′3′cGAMP stimulation, luciferase reporter); details: final 2′3′cGAMP 15 μM, 24 h, luciferase reporter activity
Sequence (Q86WV6 whole entry R71H/G230A/H232R/R293Q): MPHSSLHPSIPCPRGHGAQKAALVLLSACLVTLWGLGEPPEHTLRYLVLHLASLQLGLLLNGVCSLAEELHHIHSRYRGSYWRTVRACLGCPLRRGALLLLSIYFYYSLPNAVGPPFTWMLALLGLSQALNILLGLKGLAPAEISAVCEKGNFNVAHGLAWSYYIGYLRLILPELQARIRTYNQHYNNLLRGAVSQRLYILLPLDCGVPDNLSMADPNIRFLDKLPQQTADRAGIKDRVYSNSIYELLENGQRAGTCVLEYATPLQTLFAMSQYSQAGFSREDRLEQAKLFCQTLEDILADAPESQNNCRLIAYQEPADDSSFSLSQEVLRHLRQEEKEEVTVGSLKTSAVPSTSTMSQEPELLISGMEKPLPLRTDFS
Test Readout: EC50

{"Molecule": "CCc1ccc(-n2cc(-c3ccc4[nH]cc(NS(=O)(=O)CC5CCCO5)c4c3)cn2)cc1 (stereo not shown)", "Result": "0.2 to 1 µM"}
{"Molecule": "CCc1ccc(-n2cc(-c3ccc4[nH]cc(NS(=O)(=O)CC)c4c3)cn2)cc1", "Result": "1 to 5 µM"}
{"Molecule": "CCc1ccc(-n2cc(-c3ccc4[nH]cc(NS(=O)(=O)C5CCC5)c4c3)cn2)cc1", "Result": "0.2 to 1 µM"}
{"Molecule": "CCc1ccc(-n2cc(-c3ccc4[nH]cc(NS(=O)(=O)CC5CC5)c4c3)cn2)cc1", "Result": "0.2 to 1 µM"}
